MEASURED TARGET: Amyloid-beta precursor protein (Homo sapiens, UniProt P05067)
Sequence (P05067 whole entry): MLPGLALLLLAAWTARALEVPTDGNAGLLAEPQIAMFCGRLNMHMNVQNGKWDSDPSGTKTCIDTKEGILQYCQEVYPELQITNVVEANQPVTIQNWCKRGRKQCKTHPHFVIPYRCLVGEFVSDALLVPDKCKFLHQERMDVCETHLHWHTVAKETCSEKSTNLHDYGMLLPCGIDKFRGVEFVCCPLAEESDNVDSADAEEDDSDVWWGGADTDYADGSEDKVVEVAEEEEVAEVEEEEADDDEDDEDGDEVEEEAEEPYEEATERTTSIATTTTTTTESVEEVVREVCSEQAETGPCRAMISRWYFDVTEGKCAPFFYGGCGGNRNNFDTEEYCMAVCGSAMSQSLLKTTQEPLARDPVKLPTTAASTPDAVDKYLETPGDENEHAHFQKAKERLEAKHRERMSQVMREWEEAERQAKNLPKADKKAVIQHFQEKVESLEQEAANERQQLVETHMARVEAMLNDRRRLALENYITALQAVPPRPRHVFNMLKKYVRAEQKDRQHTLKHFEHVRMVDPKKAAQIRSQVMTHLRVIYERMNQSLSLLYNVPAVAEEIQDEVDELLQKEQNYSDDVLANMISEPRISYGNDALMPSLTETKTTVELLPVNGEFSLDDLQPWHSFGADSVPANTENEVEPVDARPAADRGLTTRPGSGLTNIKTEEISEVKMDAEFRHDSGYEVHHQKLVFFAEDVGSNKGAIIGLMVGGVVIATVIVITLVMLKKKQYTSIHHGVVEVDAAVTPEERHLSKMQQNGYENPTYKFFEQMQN
METHOD NOTES: Modulation of human wild-type APP695 expressed in SH-SY5Y cells assessed as increase in CTFalpha level at 3 uM measured after 24 hrs by Western blot analysis relative to chloroquine
Type: cell-based
# fold change (FC) >= 1 gives 1.0, anything below gives 0.0

>>> print(df.to_string())
                                   molecule                           measured_target  class_assignment
0  CN1CCN(c2cc(Nc3ccnc4cc(Cl)ccc34)cc(N3CCN(C)CC3)c2)CC1  Amyloid-beta precursor protein (Homo sapiens, UniProt P05067)               1.0

Input: Quick check: does CN(C)CCNCc1cc(NC(=O)CN2CCCCC2)cc(Nc2ccnc3cc(Cl)ccc23)c1 have fold change (FC) greater than or equal to 1?
Output: 1.0

Input: Item: Clc1ccc2c(Nc3cc(CN4CCOCC4)cc(NCCN4CCCCC4)c3)ccnc2c1
Output: 1.0

Input: Item: O=C(NCCN1CCCCC1)c1cc(C(=O)NCCN2CCCCC2)cc(-c2ccccc2CN2CCCCC2)c1
Output: 1.0
